- TARGET SYSTEM: T1, SARS-CoV2 Spike ecto foldon Trimer expressed with a C-terminal myc-myc-hexahistidine (SARS-CoV-2, UniProt P0DTC2 14-1213)
- T1 construct: extracellular domain
- TEST PROTOCOL: SPR Biacore, mAb captured by anti-hFc, 37C
Hi there, I'd appreciate the recorded pKd for every entry that follows.
One number for each entry, as −log10 of the molar value.

Some solved entries appear below for comparison.
BINDER	pKd
mAb14232 (antibody, V domains shown) VH: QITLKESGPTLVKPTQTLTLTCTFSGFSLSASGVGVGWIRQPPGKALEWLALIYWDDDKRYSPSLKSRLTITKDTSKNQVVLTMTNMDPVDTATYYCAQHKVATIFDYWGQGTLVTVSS VL: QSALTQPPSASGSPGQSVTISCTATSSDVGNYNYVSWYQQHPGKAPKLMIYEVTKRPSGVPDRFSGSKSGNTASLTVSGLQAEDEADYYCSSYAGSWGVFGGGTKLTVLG	9.75
mAb14235 (antibody, V domains shown) VH: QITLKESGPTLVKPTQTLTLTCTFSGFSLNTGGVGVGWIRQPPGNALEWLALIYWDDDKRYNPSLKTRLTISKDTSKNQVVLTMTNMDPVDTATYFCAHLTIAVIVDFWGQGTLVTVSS VL: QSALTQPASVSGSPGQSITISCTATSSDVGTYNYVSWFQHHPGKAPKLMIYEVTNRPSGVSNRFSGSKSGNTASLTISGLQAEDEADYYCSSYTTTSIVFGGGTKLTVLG	10.29

Go through the list and state pKd for each entry.
1. mAb14281 (antibody, V domains shown) VH: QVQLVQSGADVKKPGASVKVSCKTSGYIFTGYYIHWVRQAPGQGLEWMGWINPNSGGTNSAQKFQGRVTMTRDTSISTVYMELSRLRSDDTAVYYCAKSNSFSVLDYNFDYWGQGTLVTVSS VL: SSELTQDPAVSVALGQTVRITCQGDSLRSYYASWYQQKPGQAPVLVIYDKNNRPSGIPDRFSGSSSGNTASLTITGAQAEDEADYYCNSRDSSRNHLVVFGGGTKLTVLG
2. mAb14286 (antibody, V domains shown) VH: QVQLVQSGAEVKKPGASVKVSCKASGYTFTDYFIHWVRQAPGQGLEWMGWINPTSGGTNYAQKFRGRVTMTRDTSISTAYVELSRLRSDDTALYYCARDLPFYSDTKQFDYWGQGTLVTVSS VL: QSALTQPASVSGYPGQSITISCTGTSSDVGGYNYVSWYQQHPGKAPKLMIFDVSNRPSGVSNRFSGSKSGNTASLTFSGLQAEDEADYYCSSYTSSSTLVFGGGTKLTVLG
3. mAb14282 (antibody, V domains shown) VH: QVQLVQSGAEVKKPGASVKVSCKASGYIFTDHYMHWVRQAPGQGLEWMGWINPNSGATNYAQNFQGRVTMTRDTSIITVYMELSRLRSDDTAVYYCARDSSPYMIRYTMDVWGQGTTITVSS VL: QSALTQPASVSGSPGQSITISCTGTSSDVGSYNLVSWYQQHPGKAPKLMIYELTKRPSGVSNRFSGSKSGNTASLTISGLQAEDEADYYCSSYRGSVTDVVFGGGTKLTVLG
4. mAb15159 (antibody, V domains shown) VH: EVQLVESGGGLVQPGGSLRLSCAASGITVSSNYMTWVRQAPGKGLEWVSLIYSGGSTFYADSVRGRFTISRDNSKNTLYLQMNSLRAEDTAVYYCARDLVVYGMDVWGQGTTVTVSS VL: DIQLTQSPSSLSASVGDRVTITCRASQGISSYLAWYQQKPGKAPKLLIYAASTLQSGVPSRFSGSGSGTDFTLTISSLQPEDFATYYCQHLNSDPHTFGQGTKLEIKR

A)
1. 9.86
2. 10.26
3. 9.79
4. 10.16

Report pKd for each item below.
1. mAb14230 (antibody, V domains shown) VH: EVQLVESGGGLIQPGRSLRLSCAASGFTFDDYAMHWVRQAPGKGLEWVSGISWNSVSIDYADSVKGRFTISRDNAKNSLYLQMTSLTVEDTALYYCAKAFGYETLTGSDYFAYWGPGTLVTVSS VL: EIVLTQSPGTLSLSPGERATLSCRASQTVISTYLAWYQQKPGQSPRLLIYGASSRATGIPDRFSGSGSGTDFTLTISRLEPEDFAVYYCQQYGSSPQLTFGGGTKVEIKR
2. mAb14283 (antibody, V domains shown) VH: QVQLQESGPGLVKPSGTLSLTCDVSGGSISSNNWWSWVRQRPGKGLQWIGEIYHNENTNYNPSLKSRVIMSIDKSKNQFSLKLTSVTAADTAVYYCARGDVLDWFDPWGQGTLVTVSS VL: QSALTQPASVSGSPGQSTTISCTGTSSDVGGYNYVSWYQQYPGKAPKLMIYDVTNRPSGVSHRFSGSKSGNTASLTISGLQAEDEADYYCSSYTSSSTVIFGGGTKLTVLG

A)
1. 10.00
2. 10.07
